assay: Metabolic stability in rat hepatocytes assessed as intrinsic clearance measured per 10^6 cells; assay type: ADME, cell-based, Hepatocyte; settings: rat hepatocytes, read-out: CLH
ASSAY METRIC: log10(hepatocyte CLint) (log10 of the value in µL/min/1e6 cells)
Plainly stated, the numbers are log10 of hepatocyte CLint given in µL/min/1e6 cells.

Task: Look up log10(hepatocyte CLint) for this compound: C=CC(=O)N(c1ccc(O[C@@H]2CC[C@@H](NC(=O)NCCN(C)C)C2)c(Cl)c1)[C@@H](C)c1ccc(Cl)cc1
Output: 1.23

Task: Would you mind telling me what log10(hepatocyte CLint) value was observed for C=CC(=O)N(c1ccc(O[C@@H]2CC[C@@H](NC(=O)N[C@@H]3CCS(=O)(=O)C3)C2)c(Cl)c1)[C@@H](C)c1ccc(Cl)cc1 ?
Output: 1.74

Task: Request the reported log10(hepatocyte CLint) associated with C=CC(=O)N(c1ccc(O[C@@H]2CC[C@@H](NC(=O)N[C@@H]3CCS(=O)(=O)C3)C2)c(F)c1)[C@@H](C)c1ccc(C(F)(F)F)c(C#N)c1
Output: 2.42

Task: Looking for the measured log10(hepatocyte CLint) of C[C@@H](c1ccc(Cl)cc1)N(C(=O)/C=C/CN(C)C)c1ccc(O[C@@H]2CC[C@@H](NC(=O)N[C@@H]3CCS(=O)(=O)C3)C2)c(F)c1 , can you help?
Output: 1.45

Task: Give its log10(hepatocyte CLint) value. Item: C=CC(=O)N(c1ccc(O[C@@H]2CC[C@@H](NC(=O)NCC(C)(C)N(C)C)C2)c(F)c1)[C@@H](C)c1ccc(Cl)cc1
Output: 1.15

Task: Need log10(hepatocyte CLint) of C=CC(=O)N(c1ccc(O[C@@H]2CC[C@@H](NC(=O)N[C@@H]3CCS(=O)(=O)C3)C2)c(F)c1)[C@@H](CC(N)=O)c1ccc(Cl)cc1 , thanks.
Output: 1.87

Task: I have this compound here, C=CC(=O)N(c1ccc(O[C@@H]2CC[C@@H](NC(=O)N[C@@H]3CCS(=O)(=O)C3)C2)c(F)c1)[C@@H](C)c1ccc(Cl)cc1 , and I need its recorded log10(hepatocyte CLint).
Output: 1.77

Task: Requested read-out: log10(hepatocyte CLint). Entry: C=CC(=O)N(c1ccc(O[C@@H]2CC[C@@H](N)C2)c(F)c1)[C@@H](CC(C)(C)O)c1ccc(Cl)cc1
Output: 0.86

Task: Requested read-out: log10(hepatocyte CLint). Entry: C=CC(=O)N(c1ccc(O[C@@H]2CC[C@@H](NC(=O)N[C@@H]3CCS(=O)(=O)C3)C2)c(F)c1)[C@@H](CC(C)(C)O)c1ccc(Cl)cc1
Output: 1.72

* * *

molecular target: BCL2A1/BID (Homo sapiens, UniProt Q16548); test: Inhibition of BFL-1/ BH3 (unknown origin) interaction incubated for 2 hrs by TR-FRET assay
Sequence (Q16548 whole entry): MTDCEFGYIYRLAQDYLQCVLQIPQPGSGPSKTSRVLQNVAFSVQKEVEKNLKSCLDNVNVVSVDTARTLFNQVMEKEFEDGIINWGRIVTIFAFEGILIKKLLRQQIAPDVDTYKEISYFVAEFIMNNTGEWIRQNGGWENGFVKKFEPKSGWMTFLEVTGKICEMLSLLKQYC
Sequence (P55957 whole entry, further chain): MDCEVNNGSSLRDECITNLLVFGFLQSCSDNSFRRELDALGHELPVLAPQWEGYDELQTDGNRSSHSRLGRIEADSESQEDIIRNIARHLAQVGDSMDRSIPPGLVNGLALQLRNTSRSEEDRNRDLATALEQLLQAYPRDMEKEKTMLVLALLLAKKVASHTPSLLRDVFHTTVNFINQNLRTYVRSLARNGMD
ASSAY METRIC: IC50 (nM)
Please respond with the number in nM and leave the unit unwritten.

Task: Which measured IC50 value corresponds to C[C@@H](c1ccc(Cl)cc1)N(C(=O)/C=C/CN(C)C)c1ccc(O[C@@H]2CC[C@@H](NC(=O)NC3CS(=O)(=O)C3)C2)c(F)c1 ?
Output: 10

Task: Would you mind telling me what IC50 value was observed for C=CC(=O)N(c1ccc(O[C@@H]2CC[C@@H](NC(=O)N[C@@H]3CCS(=O)(=O)C3)C2)c(Cl)c1)[C@@H](C)c1ccc(Cl)cc1 ?
Output: 5.4

Task: Endpoint output: IC50 of C=CC(=O)N(c1cc(F)c(O[C@@H]2CC[C@@H](N)C2)cc1C)[C@@H](C)c1ccc(Cl)cc1 . Value?
Output: 31

Task: Can you look up the measured IC50 of C=C(Cl)C(=O)N(Cc1ccc(C(F)(F)F)cc1)c1ccc(O[C@@H]2CC[C@@H](N)C2)cc1 (racemic) for me?
Output: 1000
